# System Tested: Grb2 SH2 (UniProt P62993)
# Sequence (P62993 whole entry, looked up): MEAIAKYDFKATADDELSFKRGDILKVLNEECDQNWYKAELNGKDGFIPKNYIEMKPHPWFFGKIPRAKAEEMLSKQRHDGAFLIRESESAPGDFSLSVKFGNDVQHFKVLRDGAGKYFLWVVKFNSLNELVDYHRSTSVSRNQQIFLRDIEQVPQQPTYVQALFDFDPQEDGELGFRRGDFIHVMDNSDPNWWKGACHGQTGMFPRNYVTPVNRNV
# Protocol Description: SH2 binding enrichment of the phosphorylated peptide, bacterial display (enrichment ratio); higher = better substrate or ligand; peptides without Tyr show the background
Hi there, I'd appreciate the recorded SH2 binding enrichment for every entry that follows.

Recorded results for 3 sequences are shown here.
{"columns": ["Biopolymer Sequence", "System Tested", "Observed"],
 "data": [
  ["NLTVNYKKNLI [SQOR_Y259]", "Grb2 SH2 (UniProt P62993)", 0.916],
  ["YRIDHYLGKEM [G6PD_Y202]", "Grb2 SH2 (UniProt P62993)", 0.678],
  ["MEFAKYGSLRG [RET_Y809_V804M_YF]", "Grb2 SH2 (UniProt P62993)", 1]
]}

Parameter requested: SH2 binding enrichment. Apply to each item below.
1. AAVDTVCRHNF [HLA-DRB1_Y107_Y107V_YF]
2. SVAVPYEPPEV [TP53_Y220_V217A]
3. MACDRYVAICS [OR8D4_Y123]
4. LLVVLYKYRCF [PSEN1_Y154_Y159F]
5. CKLCQYFLDHL [ATRX_Y1849_Y1847C_YF]
6. SGFESYGSSSS [RPA2_Y9_Y14S]
7. ALAQKYHGGGG [HBB_Y146_H144Q]

1: 0.888; 2: 1.05; 3: 0.743; 4: 1.63; 5: 1.46; 6: 0.735; 7: 0.782

Could you report SH2 binding enrichment for every entry in the following list?
1. TTICKYSTPME [GUCY2C_Y839]
2. QYQLKYSETPF [SIX6OS1_Y129]
3. SVVVLYEPPEV [TP53_Y220_P219L]
4. RIFDFYSARKA [STOX1_Y858_YF]
5. TRSFKCLLLSM [NF1_Y491_Y491C_YF]

1. 0.924
2. 0.868
3. 0.962
4. 0.75
5. 1.11

* * *

# System: AncSZ
# Protocol Description: phosphorylation enrichment, bacterial display (enrichment ratio); higher = better substrate or ligand; peptides without Tyr show the background
Exercise: for every item that follows, state its recorded phosphorylation enrichment.
Numbers only.

{"columns": ["Biopolymer Sequence", "System Tested", "Observed"],
 "data": [
  ["KGNMFYENSFA [EGFR_Y113_R108K_YF]", "AncSZ", 0.76],
  ["HNLYSYPTKYE [MYO3A_Y1396_H1400Y]", "AncSZ", 2.65],
  ["KVVNEYVTKGQ [MYH7_Y410_G407V]", "AncSZ", 0.806],
  ["SVTCTGSPALN [TP53_Y126_Y126G]", "AncSZ", 0.792],
  ["RQNNSYTCFTA [SLC20A2_Y386_R382Q_YF]", "AncSZ", 1.04],
  ["SFPPTYRFERG [INPPL1_Y661_YF]", "AncSZ", 0.638],
  ["NKEPRYQEEPP [TJP2_Y479_D482E]", "AncSZ", 1.1],
  ["DLGIQYKALKP [CTNNA1_Y177]", "AncSZ", 0.754]
]}

Provide phosphorylation enrichment for all items below, preserving their order.
1. EMFNPYFGLFE [NEDD4L_Y679_YF]
2. TGYRPYVCPFD [YY1_Y383_D380Y]
3. MQMEEYRGRVE [BTNL2_Y91_W94R]
4. RCNHPYLINGA [CHD7_Y1256_C1251R]
5. TSQSQYFSFRE [CCDC170_Y323]

1: 1.52; 2: 1.16; 3: 0.755; 4: 0.664; 5: 0.745

* * *

# System: AncSZ
# Protocol Description: phosphorylation enrichment, bacterial display (enrichment ratio); higher = better substrate or ligand; peptides without Tyr show the background
Hi there, I'd appreciate the recorded phosphorylation enrichment for every entry that follows.
Numbers only.

{"columns": ["Biopolymer Sequence", "Observed"],
 "data": [
  ["EPVSDYINASI [PTPN11_Y304_N308S]", 1.05],
  ["VQQVIYATRAL [MYH7_Y422_G425R]", 0.663],
  ["AHAGEYGAGAL [HBA1_Y25_E28G]", 0.575],
  ["CPSLLYSPVSS [CAMKK2_Y128_P127L]", 1.44],
  ["PHMQTYEVDPN [SDHB_Y61_L65P]", 1.19]
]}

For every item below, please supply its phosphorylation enrichment.
1. VDDEIYFFRKP [PBRM1_Y1289_YF]
2. TLLERYGMTEI [ACSF3_Y355]

1. 2.12
2. 0.621

* * *

Exercise: state measured phosphorylation enrichment for each of the sequences provided.
# Tested on: c-Abl (mouse)
# Protocol Description: phosphorylation enrichment, bacterial display (enrichment ratio); higher = better substrate or ligand; peptides without Tyr show the background
Numbers only.

{"columns": ["Biopolymer Sequence", "phosphorylation enrichment"],
 "data": [
  ["TTICKYSTPME [GUCY2C_Y839]", 0.63],
  ["EVGHVYLFLQP [ITGA2B_Y360_R358H]", 0.885]
]}

Please state, for each entry, its recorded phosphorylation enrichment.
1. NCLREYVAGRF [CRB1_Y711]
2. KTDVHYRSLGG [DYSF_Y1858]
3. WQQQSYLASGI [CTNNB1_Y30_D32A]
4. QGIIIYRAAYF [SLC25A4_Y187]

[0.651, 0.426, 0.686, 1.28]

* * *

# System Tested: MERTK (UniProt Q12866)
# Sequence (Q12866 whole entry, looked up): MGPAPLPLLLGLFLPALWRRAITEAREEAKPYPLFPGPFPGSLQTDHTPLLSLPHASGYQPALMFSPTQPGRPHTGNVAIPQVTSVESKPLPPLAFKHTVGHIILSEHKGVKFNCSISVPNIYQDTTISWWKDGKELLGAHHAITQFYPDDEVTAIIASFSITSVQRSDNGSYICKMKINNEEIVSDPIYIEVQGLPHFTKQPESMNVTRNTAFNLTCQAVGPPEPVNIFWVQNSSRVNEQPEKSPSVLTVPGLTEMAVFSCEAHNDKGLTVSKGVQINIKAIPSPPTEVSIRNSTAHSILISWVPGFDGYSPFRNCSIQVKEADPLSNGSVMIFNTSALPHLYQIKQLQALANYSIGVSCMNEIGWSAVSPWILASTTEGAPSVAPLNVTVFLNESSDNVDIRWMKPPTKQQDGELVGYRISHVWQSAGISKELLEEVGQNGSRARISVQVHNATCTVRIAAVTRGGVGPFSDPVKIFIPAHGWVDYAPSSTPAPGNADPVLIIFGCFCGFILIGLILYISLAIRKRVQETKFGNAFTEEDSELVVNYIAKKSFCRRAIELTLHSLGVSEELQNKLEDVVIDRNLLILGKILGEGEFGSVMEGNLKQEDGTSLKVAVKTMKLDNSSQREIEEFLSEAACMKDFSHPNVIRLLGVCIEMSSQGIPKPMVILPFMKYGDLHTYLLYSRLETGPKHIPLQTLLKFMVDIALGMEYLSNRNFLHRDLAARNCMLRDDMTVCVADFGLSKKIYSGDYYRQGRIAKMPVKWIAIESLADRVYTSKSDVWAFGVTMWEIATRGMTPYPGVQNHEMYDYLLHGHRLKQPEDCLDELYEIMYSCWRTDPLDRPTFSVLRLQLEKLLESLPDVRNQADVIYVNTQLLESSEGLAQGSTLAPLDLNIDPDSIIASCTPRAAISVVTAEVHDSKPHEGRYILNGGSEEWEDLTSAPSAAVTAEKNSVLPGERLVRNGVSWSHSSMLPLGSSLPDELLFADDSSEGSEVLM
# Protocol Description: phosphorylation enrichment, bacterial display (enrichment ratio); higher = better substrate or ligand; peptides without Tyr show the background
Label rule, in plain words: phosphorylation enrichment of 0.5 and up is Fulfilled, under 0.5 is Not fulfilled.

Solved entries (count: 3):
{"columns": ["Biopolymer Sequence", "Discrete Label"],
 "data": [
  ["LFIDSYEKDVA [PGM1_Y521_YF]", "Fulfilled"],
  ["SVTCTYCPALN [TP53_Y126_S127C]", "Fulfilled"],
  ["DPLLTYLFPPK [LMNA_Y481_R482L]", "Fulfilled"]
]}

Kindly determine if phosphorylation enrichment recorded for NELTYYCYKKD [CD59_Y87_C89Y] is above or exactly 0.5. Fulfilled

# check: phosphorylation enrichment of HNLYSYPTKYE [MYO3A_Y1396_H1400Y] is greater than or equal to 0.5 Fulfilled

* * *

I'd appreciate it if you could supply phosphorylation enrichment values for the items below.
# System Tested: EPHB1 (UniProt P54762)
# Sequence (P54762 whole entry, looked up): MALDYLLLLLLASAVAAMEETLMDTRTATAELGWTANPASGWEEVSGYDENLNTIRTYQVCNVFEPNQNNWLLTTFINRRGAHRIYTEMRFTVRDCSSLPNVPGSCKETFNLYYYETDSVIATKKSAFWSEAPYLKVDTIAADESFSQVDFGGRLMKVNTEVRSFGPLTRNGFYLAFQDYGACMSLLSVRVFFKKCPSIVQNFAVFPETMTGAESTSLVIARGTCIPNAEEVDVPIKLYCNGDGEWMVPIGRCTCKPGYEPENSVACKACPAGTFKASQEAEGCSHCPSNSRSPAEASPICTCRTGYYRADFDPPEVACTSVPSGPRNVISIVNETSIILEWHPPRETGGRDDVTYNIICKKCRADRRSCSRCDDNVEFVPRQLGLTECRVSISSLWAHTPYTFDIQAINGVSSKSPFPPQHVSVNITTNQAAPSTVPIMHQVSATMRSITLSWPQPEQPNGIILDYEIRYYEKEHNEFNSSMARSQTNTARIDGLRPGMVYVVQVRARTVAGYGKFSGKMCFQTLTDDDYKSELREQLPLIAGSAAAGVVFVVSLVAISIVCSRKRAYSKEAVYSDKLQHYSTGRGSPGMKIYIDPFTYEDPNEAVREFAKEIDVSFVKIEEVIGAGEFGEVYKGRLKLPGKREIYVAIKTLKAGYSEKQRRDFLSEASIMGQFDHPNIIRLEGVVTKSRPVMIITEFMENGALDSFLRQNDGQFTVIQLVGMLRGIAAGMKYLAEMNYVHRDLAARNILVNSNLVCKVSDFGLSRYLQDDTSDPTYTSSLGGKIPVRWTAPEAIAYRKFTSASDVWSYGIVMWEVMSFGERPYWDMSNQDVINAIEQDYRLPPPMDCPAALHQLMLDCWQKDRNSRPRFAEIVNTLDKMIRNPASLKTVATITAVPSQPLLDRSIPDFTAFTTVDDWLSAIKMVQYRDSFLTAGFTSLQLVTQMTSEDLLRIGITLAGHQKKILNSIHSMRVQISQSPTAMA
# Protocol Description: phosphorylation enrichment, bacterial display (enrichment ratio); higher = better substrate or ligand; peptides without Tyr show the background
Numbers only.

Please review the following examples before continuing.
{"columns": ["Biopolymer Sequence", "phosphorylation enrichment"],
 "data": [
  ["SRDTRYLVLAV [AMH_Y195]", 0.636],
  ["IEENGYNTFAS [FGF10_Y161_YF]", 0.478],
  ["AEEEIYGEFEA [Src_opt_1995]", 0.808],
  ["EPSVDYCVVKI [CAD_Y735]", 2.83],
  ["KPLMPCMRYSR [SMARCE1_Y73_Y73C]", 0.404]
]}

Provide phosphorylation enrichment for all items below, preserving their order.
1. QTENKYDSVSG [EIF2AK3_Y565]
2. LKSEMYQKLLK [RGS13_Y146]
3. IHADICRWFNI [MARS1_Y344_Y344C]
4. MGGSLYFSFPD [HIKESHI_Y55_V54L_YF]
5. RYLTRYIYNRE [HLA-DQB1_Y62_V59L]
6. SMGHRYIEVFK [HNRNPF_Y82]
7. LAETSYVIVLE [MAGEA1_Y276_K278I]

1: 0.407; 2: 0.709; 3: 0.639; 4: 7.73; 5: 4.73; 6: 0.398; 7: 1.06

* * *

# System Tested: EPHB2 (UniProt P29323)
# Sequence (P29323 whole entry, looked up): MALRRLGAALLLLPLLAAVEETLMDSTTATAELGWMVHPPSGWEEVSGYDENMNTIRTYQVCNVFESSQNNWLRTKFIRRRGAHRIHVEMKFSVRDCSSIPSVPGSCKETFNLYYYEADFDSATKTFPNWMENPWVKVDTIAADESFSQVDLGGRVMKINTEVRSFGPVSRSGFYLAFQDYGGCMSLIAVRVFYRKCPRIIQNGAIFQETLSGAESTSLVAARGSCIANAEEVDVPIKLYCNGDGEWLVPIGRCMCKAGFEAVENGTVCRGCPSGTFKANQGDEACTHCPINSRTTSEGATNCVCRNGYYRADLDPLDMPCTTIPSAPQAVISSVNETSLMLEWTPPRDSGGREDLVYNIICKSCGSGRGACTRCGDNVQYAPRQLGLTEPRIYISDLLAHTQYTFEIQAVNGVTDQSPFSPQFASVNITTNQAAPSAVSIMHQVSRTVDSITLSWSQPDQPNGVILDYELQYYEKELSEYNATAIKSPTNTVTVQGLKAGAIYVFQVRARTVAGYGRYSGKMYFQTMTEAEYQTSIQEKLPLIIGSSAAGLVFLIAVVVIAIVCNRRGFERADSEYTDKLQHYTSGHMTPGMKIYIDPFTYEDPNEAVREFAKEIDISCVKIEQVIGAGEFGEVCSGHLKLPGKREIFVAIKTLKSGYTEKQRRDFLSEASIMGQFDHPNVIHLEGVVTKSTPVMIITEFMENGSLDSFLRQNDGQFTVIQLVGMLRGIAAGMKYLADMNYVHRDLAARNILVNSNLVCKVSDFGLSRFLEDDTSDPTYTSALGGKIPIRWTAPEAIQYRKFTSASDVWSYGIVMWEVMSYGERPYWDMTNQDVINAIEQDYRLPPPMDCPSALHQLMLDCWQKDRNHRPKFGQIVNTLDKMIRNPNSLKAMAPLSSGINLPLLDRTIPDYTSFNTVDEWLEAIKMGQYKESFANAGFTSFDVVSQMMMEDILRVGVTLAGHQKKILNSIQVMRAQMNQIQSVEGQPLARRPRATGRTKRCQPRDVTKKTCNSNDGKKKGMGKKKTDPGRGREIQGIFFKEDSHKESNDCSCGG
# Protocol Description: phosphorylation enrichment, bacterial display (enrichment ratio); higher = better substrate or ligand; peptides without Tyr show the background
Assign satisfied to entries whose phosphorylation enrichment meets or exceeds 0.6; assign not satisfied to the rest.

{"columns": ["Biopolymer Sequence", "System Tested", "Discrete Label"],
 "data": [
  ["FTGDIYSNSNL [LZTR1_Y141_YF]", "EPHB2 (UniProt P29323)", "satisfied"]
]}

Reported phosphorylation enrichment reaches at least 0.6 for EPVSDYINASI [PTPN11_Y304_N308S] ? not satisfied

// inclusive: phosphorylation enrichment at least 0.6? input: RCNHPYLINGA [CHD7_Y1256_C1251R] not satisfied

Is phosphorylation enrichment for CTTIYYNYMCN [TP53_Y234_H233Y] at or above 0.6? satisfied

* * *

# System: c-Abl (mouse)
# Protocol Description: phosphorylation enrichment, bacterial display (enrichment ratio); higher = better substrate or ligand; peptides without Tyr show the background
Record form. Attribute: phosphorylation enrichment. Fill in for each entry.

Record excerpt, results attached:
{"columns": ["Biopolymer Sequence", "phosphorylation enrichment"],
 "data": [
  ["SHSMRYFFTAV [HLA-C_Y31_D33F]", 0.923],
  ["RAYRRYLLKQK [SCN2A_Y1919]", 0.42],
  ["NARGLYYKLHN [GATA2_Y376_C373R]", 0.874],
  ["TLNVRYESVQA [CEACAM7_Y236]", 0.504],
  ["TRSFKCLLLSM [NF1_Y491_Y491C_YF]", 0.713],
  ["FQNGMYGLHQD [SGSH_Y89_H84Y_YF]", 0.552],
  ["KSPGEYVNIEF [IRS1_Y896]", 0.706],
  ["TPTYPYLLPKS [PLD2_Y580]", 0.564]
]}

For each of the items listed, what is its phosphorylation enrichment?
1. GTGTAYLCGVK [ALPL_Y117_A114G]
2. SFTDPYAQPSL [KMT2D_Y2378_P2382S_YF]
3. PFQGAYLEINK [MYO1B_Y967]
4. MGRVNYGAYIN [GLB1_Y485]
5. LGPSDYFGEIV [PRKAR1A_Y323_A328V]
6. LEDPMYDIIRD [RP9_Y142_H137L]

1. 0.685
2. 0.747
3. 0.497
4. 0.587
5. 0.746
6. 4.38
